assayed target: human VR1 (Homo sapiens, UniProt Q8NER1)
Construct: expressed in transfected cells
Sequence (Q8NER1 whole entry): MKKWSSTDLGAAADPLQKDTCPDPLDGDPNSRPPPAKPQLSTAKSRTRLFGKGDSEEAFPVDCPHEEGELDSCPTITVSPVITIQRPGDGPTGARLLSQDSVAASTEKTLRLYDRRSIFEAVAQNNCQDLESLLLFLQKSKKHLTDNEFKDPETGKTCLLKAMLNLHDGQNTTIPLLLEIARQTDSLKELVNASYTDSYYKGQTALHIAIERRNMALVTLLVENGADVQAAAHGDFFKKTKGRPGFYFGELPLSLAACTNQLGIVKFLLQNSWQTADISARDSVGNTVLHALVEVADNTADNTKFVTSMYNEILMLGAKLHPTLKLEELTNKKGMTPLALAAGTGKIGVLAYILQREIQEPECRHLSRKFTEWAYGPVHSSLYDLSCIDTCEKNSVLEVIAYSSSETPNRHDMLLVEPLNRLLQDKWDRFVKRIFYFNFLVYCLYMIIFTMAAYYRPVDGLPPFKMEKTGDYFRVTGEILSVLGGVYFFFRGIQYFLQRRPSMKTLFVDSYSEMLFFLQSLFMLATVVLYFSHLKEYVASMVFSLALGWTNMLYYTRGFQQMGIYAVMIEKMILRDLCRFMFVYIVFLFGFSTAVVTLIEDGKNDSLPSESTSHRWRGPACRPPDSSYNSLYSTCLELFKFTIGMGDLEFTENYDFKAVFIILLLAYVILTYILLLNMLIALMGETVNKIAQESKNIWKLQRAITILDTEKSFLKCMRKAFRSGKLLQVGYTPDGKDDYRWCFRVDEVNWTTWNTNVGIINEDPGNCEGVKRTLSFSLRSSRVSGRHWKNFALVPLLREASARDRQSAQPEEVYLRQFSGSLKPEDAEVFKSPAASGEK
method notes: capsaicin-induced Ca2+ influx in the human VR1-transfected CHO cell line (Assay 1)
Type: cell-based
test conditions: Table 2; 10 nM capsaicin, human VR1-CHOluc9aeq cells; read-out: activity class
Provide the reported IC50 of each item.

Incoming: Return reported IC50. Input compound: COc1ccc(CNC(=O)Nc2cccc3c2CC(O)CC3)cc1OC (stereo not drawn) [Example 4-27]
Outgoing: 500 to 1000 nM

Incoming: Return reported IC50. Input compound: Nc1ccc(CNC(=O)Nc2cccc3c2CC(O)CC3)cc1 (stereo not drawn) [Example 4-31]
Outgoing: 500 to 1000 nM

Incoming: Return reported IC50. Input compound: O=C(NCc1ccccc1)Nc1cccc2c1CC(O)CC2 (stereo not drawn) [Example 4-6]
Outgoing: 100 to 500 nM

Incoming: Return reported IC50. Input compound: O=C(Nc1ccc(Oc2ccc(Cl)cc2)cc1)Nc1cccc2c1CC(O)CC2 (stereo not drawn) [Example 4-39]
Outgoing: < 100 nM

Incoming: Return reported IC50. Input compound: CC(C)(NC(=O)Nc1cccc2c1CC(O)CC2)c1ccc(Cl)cc1 (stereo not drawn) [Example 4-44]
Outgoing: 100 to 500 nM

Incoming: Return reported IC50. Input compound: Nc1ccccc1CNC(=O)Nc1cccc2c1CC(O)CC2 (stereo not drawn) [Example 4-32]
Outgoing: 500 to 1000 nM

Incoming: Return reported IC50. Input compound: O=C(NCc1ccc(Cl)c(C(F)(F)F)c1)Nc1cccc2c1CC(O)CC2 (stereo not drawn) [Example 4-35]
Outgoing: < 100 nM

Incoming: Return reported IC50. Input compound: O=C(NCCc1ccc(Cl)cc1)Nc1cccc2c1CC(O)CC2 (stereo not drawn) [Example 4-36]
Outgoing: < 100 nM

Incoming: Return reported IC50. Input compound: O=C(NCc1cccc(Cl)c1)Nc1cccc2c1CC(O)CC2 (stereo not drawn) [Example 4-14]
Outgoing: < 100 nM
